From: patent US8932597B2

Tested on: anti-M2 human monoclonal antibody Z3G1
Format: binding
Quantity kind: Signal (peptides that show specific binding to Z3G1)
// return just the number, without any unit appended

Incoming: Using the record for 687 (SLLTEVETPCRNEWGCRCNDSSD; epitope peptide) [compound 687] , report its Signal (peptides that show specific binding to Z3G1).
Outgoing: 2050

Incoming: Using the record for 707 (SLLTEVETPIANEWGCRCNDSSD; epitope peptide) [compound 707] , report its Signal (peptides that show specific binding to Z3G1).
Outgoing: 2302

Incoming: Using the record for 639 (SLLTEVETPIRNEWGCFCNDSSD; epitope peptide) [compound 639] , report its Signal (peptides that show specific binding to Z3G1).
Outgoing: 2312

Incoming: Using the record for 349 (SLATEVETPIRNEWGCRCNDSSD; epitope peptide) [compound 349] , report its Signal (peptides that show specific binding to Z3G1).
Outgoing: 2145

Incoming: Using the record for 510 (SLRTEVETPIRNEWGCRCNDSSD; epitope peptide) [compound 510] , report its Signal (peptides that show specific binding to Z3G1).
Outgoing: 1034
